- Tested on: Jurkat
- method summary: Inhibition of TPA-stimulated NF-kappaB gene promoter expression in human Jurkat cells by SEAP reporter gene assay
- Assay type: functional, cell-based
readout kind: pIC50
Scale note: pIC50 = -log10(concentration in M).

Reported pIC50 ( CCCCCCCCCCCC(=O)[C@]1(O)C[C@H](C(=O)OC)C(C(=O)OCC)=C2N(Cc3ccccc3)CCN21 ) = 5.34

* * *

- Test system: HeLa
- method summary: Inhibition of IFN-alpha-stimulated GAS/ISRE gene promoter expression in human HeLa S3 cells by SEAP reporter gene assay
- Type: functional, cell-based
readout kind: pIC50
Scale note: pIC50 = -log10(concentration in M).

Reported pIC50 ( CCCCCCCCCCCC(=O)[C@]1(O)C[C@H](C(=O)OC)C(C(=O)OCC)=C2N(Cc3ccccc3)CCN21 ) = 5.34
